Hey, just so you know, these numbers are from PubChem BioAssay (NCI).

Reported TGI is given for each of the following compounds.
System: SF-268 CNS
Experiment: NCI tumour cell line growth inhibition, 48 h

[
  {
    "Test smiles": "CCc1c(Cc2[nH]c(Cc3[nH]c(C=O)c(C)c3CC)c(CC)c2CC)[nH]c(C=O)c1C",
    "TGI": "> 100 µM"
  },
  {
    "Test smiles": "CO[C@@H]1C=C[C@@]23c4cc5c(cc4C(=O)O[C@H]2CN(C)[C@H]3C1)OCO5",
    "TGI": "> 100 µM"
  },
  {
    "Test smiles": "O=C(O)CCc1ccc2c(c1)C(=O)CC2",
    "TGI": "> 100 µM"
  }
]
